system-name: recombinant IL4I1 (Homo sapiens)
assay-procedure: IL4I1 Enzymatic Assay (Amplex Red/HRP coupled detection of H2O2, fluorescence)
condition-notes: 1 nM recombinant IL4I1; four-hour pre-incubation with compound; 1 mM each Phe, Tyr, Trp; ten-point titration
measured-property: pEC50
Entry type: numeric. Quantity: pEC50, the -log10 of concentration in molar units.

Below are worked cases with known answers.
O=C(NCc1nnc(-c2ccccc2)s1)c1cn(C2CC2)nn1    8.10
CNC(=O)C(C)(C)n1cc(C(=O)NCc2nnc(-c3ccccc3)s2)nn1    7.59

Could you now look at the following compound, please?
Enquiry: // returns reported pEC50 for input O=C(NCc1nnc(-c2ccccc2)s1)c1cn(CC(O)C(F)F)nn1 (single isomer, unassigned) [Example 138]
Return: 7.60

---

system-name: recombinant IL4I1 (Homo sapiens, UniProt Q96RQ9)
assay-procedure: IL4I1 Enzymatic Assay (Amplex Red/HRP coupled detection of H2O2, fluorescence)
condition-notes: 1 nM recombinant IL4I1; four-hour pre-incubation with compound; 1 mM each Phe, Tyr, Trp; ten-point titration
pEC50: −log10 of the molar value.
Please use YES whenever pEC50 is not below 7, and NO whenever it is.

CC(NC(=O)c1cn(C)nn1)c1nnc(-c2ccccc2)s1 (single isomer, unassigned) [Example 259]    YES
Cn1cc(C(=O)NCc2nnc(-c3ccc(Cl)cc3)s2)nn1    NO

Enquiry: Has `CC(C)n1cc(C(=O)NCc2nnc(-c3ccccc3)s2)nn1` a recorded pEC50 greater than or equal to 7?
Return: YES

Enquiry: Has `O=C(NCc1nnc(-c2ccccc2)s1)c1cc2n(n1)CCSC2` a recorded pEC50 greater than or equal to 7?
Return: NO

Enquiry: Has `Cc1ccc(-n2cc(C(=O)NCc3cc(-c4cccc(F)c4)no3)nn2)c(C)n1` a recorded pEC50 greater than or equal to 7?
Return: YES

Enquiry: Has `C[C@H](C(F)F)n1cc(C(=O)NCc2nnc(-c3ccccc3)s2)nn1` a recorded pEC50 greater than or equal to 7?
Return: YES

Enquiry: Has `O=C(NCc1nnc(-c2ccccc2)s1)c1cn([C@H]2C[C@H](O)C2)nn1` a recorded pEC50 greater than or equal to 7?
Return: YES

Enquiry: Has `Cc1ccc(-n2cc(C(=O)NCc3nnc(-c4ccccc4)s3)nn2)c(N)n1` a recorded pEC50 greater than or equal to 7?
Return: YES

Enquiry: Has O=C(NCc1nnc(-c2ccccc2)s1)c1cn(CCC2CCCO2)nn1 (centres unmarked) a recorded pEC50 greater than or equal to 7?
Return: NO

Enquiry: Has `Cc1ccc(-n2cc(C(=O)NCc3nnc(-c4ccccc4F)s3)nn2)c(C)n1` a recorded pEC50 greater than or equal to 7?
Return: YES

Enquiry: Has `Cc1ccc(-n2cc(C(=O)NCc3nnc(-c4ccc(F)c(F)c4)s3)nn2)c(C)n1` a recorded pEC50 greater than or equal to 7?
Return: NO

Enquiry: Has `Cc1ccc(-n2cc(C(=O)NCc3nnc(-c4ccccc4)s3)nn2)c(C)n1` a recorded pEC50 greater than or equal to 7?
Return: YES

---

system-name: recombinant IL4I1 (Homo sapiens)
assay-procedure: IL4I1 Enzymatic Assay (Amplex Red/HRP coupled detection of H2O2, fluorescence)
condition-notes: 1 nM recombinant IL4I1; four-hour pre-incubation with compound; 1 mM each Phe, Tyr, Trp; ten-point titration
Known pEC50 of a selection of molecules
Entry type: numeric. Quantity: pEC50, the -log10 of concentration in molar units.

Below are worked cases with known answers.
Cn1cnc(C(=O)NCc2nnc(-c3ccccc3)s2)c1    7.11
CCn1ccc(C(=O)NCc2nnc(-c3ccccc3)s2)n1    6.89
O=C(NCc1nnc(-c2ccccc2)s1)c1cn([C@H]2CO[C@H]3[C@@H]2OC[C@H]3O)nn1    6.79
O=C(NCc1cc(-c2ccncc2)no1)c1cn(C2CC2)nn1    7.13

Enquiry: // returns reported pEC50 for input CC(O)c1cc(C(=O)NCc2nnc(-c3ccccc3)s2)on1 (single isomer, unassigned) [Example 329]
Return: 6.83

Enquiry: // returns reported pEC50 for input `O=C(NCc1nnc(-c2ccccc2)s1)c1cn([C@H]2CCC[C@@H]2O)nn1`
Return: 6.84

---

system-name: recombinant IL4I1 (Homo sapiens)
assay-procedure: IL4I1 Enzymatic Assay (Amplex Red/HRP coupled detection of H2O2, fluorescence)
condition-notes: 1 nM recombinant IL4I1; four-hour pre-incubation with compound; 1 mM each Phe, Tyr, Trp; ten-point titration
Known EC50 of a selection of compounds
Unit nM implied. Number only.

Below are worked cases with known answers.
COc1cc(C(=O)NCc2nnc(-c3ccccc3)s2)on1 [Example 58]    92
COCC[C@H](C)n1cc(C(=O)NCc2nnc(-c3ccccc3)s2)nn1 [Example 66]    221

Could you now look at the following compound, please?
Enquiry: // returns reported EC50 for input CCn1ccc(C(=O)NCc2nnc(-c3ccccc3)s2)c1 [Example 18]
Return: 40

---

system-name: recombinant IL4I1 (Homo sapiens)
assay-procedure: IL4I1 Enzymatic Assay (Amplex Red/HRP coupled detection of H2O2, fluorescence)
condition-notes: 1 nM recombinant IL4I1; four-hour pre-incubation with compound; 1 mM each Phe, Tyr, Trp; ten-point titration
measured-property: EC50 (nM)
Unit nM implied. Number only.

Below are worked cases with known answers.
O=C(NCc1nnc(-c2ccccc2)s1)c1cn(C2CN(C(=O)C3CC3)C2)nn1    542
CC(C#N)n1cc(C(=O)NCc2cc(-c3ccncc3)no2)nn1 (single isomer, unassigned) [Example 285]    184
N#CCCn1cc(C(=O)NCc2nnc(-c3ccccc3)s2)nn1    11

Enquiry: // returns reported EC50 for input `Cc1ccc(-n2cc(C(=O)NCc3ccc(-c4sccc4C)nn3)nn2)c(C)n1`
Return: 571

Enquiry: // returns reported EC50 for input `O=C(NCc1nnc(-c2ccccc2)s1)c1cn([C@@H]2CO[C@H]3[C@@H]2OC[C@H]3O)nn1`
Return: 130

Enquiry: // returns reported EC50 for input `O=C(NCc1nnc(-c2ccccc2)s1)c1cn(Cc2cn[nH]c2)nn1`
Return: 17

Enquiry: // returns reported EC50 for input `CC(C)(C#N)n1cc(C(=O)NCc2nnc(-c3ccccc3)s2)nn1`
Return: 26

Enquiry: // returns reported EC50 for input `O=C(NCc1nnc(-c2ccccc2)s1)c1cn(CC2CCC2)nn1`
Return: 12

---

system-name: recombinant IL4I1 (Homo sapiens)
Sequence (Q96RQ9 22-567): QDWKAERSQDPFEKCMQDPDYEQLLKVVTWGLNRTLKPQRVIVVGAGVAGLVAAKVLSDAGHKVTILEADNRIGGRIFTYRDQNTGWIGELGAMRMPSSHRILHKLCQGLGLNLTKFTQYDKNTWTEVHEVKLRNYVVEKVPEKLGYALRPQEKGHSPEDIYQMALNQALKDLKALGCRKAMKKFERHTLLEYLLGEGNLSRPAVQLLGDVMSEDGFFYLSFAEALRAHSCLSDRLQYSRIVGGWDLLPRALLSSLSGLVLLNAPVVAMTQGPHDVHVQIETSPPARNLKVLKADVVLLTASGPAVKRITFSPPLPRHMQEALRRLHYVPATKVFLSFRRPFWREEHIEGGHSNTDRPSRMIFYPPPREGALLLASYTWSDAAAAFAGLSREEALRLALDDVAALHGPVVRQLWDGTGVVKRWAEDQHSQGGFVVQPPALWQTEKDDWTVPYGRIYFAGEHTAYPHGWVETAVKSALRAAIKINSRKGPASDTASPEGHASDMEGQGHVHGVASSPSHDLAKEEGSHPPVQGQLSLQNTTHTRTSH
assay-procedure: IL4I1 Enzymatic Assay (Amplex Red/HRP coupled detection of H2O2, fluorescence)
condition-notes: 1 nM recombinant IL4I1; four-hour pre-incubation with compound; 1 mM each Phe, Tyr, Trp; ten-point titration
From the text: Interleukin 4 inducible protein 1 (IL4I1) is an L-amino oxidase that catalyzes the oxidation of aromatic residues (Phe, Trp and Tyr): L-amino acid+H2O+O2→2-oxo acid+NH3+H2O2. […] In this assay, the hydrogen peroxide generated by IL4I1 is then detected through a coupled reaction with Amplex Red (10-acetyl-3,7-dihydroxyphenoxazine) and […] (HRP) to produce Resorufin product that could be detected in the form of fluorescence signals. […]
measured-property: EC50 (µM)
Unit µM implied. Number only.

Below are worked cases with known answers.
O=C(NCc1nnc(-c2ccccc2)s1)c1cn(C2CC(CO)(CO)C2)nn1    0.08
Cc1cc(C(=O)NCc2nnc(-c3ccccc3)s2)no1    0.207
CC(NC(=O)c1cn(C2CC2)nn1)c1nnc(-c2ccccc2)s1 (single isomer, unassigned) [Example 245]    0.023
Cc1ccc(-n2cc(C(=O)NCc3nnc(-c4cncs4)s3)nn2)c(C)n1    0.014

Enquiry: // returns reported EC50 for input CC(C(N)=O)n1cc(C(=O)NCc2nnc(-c3ccccc3)s2)nn1 (single isomer, unassigned) [Example 319]
Return: 0.008

Enquiry: // returns reported EC50 for input `C[C@@H](O)Cn1cc(C(=O)NCc2nnc(-c3ccccc3)s2)nn1`
Return: 0.075

Enquiry: // returns reported EC50 for input `COCCCn1cc(C(=O)NCc2nnc(-c3ccccc3)s2)nn1`
Return: 0.016

Enquiry: // returns reported EC50 for input Cc1ccc(-n2cc(C(=O)NCc3ccc(-n4nccn4)nn3)nn2)c(C)n1 (single isomer, unassigned)
Return: 0.067

Enquiry: // returns reported EC50 for input `Cc1cc(C(=O)NCc2nnc(-c3ccccc3)s2)c(C)o1`
Return: 0.487
